B1: WEE1 (parent)
chain: INPFTPDSLLLHSSGQCRRRKRTY

# Variants of: B1
# ASSAY_OVERVIEW: protein stability index of a GFP-peptide fusion (GPS, HEK-293T) (PSI 1-6); higher = more stable;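 note: lentivirally expressed fusions sorted by FACS into six bins by GFP to DsRed ratio, PSI derived from sequencing read proportions per bin multiplied by bin number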
# RECORDED_CONDITIONS: c terminus: a fixed tail appended
Measured protein stability index by item
READOUT_NAME: protein stability index

[[record]]
variant = "S14H"
recorded_value = 2.93

[[record]]
variant = "C17P"
recorded_value = 4.37

[[record]]
variant = "K21Y"
recorded_value = 2.48

[[record]]
variant = "T5R"
recorded_value = 3.41

[[record]]
variant = "Y24I"
recorded_value = 3.01

[[record]]
variant = "S13G"
recorded_value = 3.17

[[record]]
variant = "H12G"
recorded_value = 3.18

[[record]]
variant = "K21D"
recorded_value = 2.9

[[record]]
variant = "T23E"
recorded_value = 3.37

[[record]]
variant = "R19H"
recorded_value = 3.32

[[record]]
variant = "D7Q"
recorded_value = 3.52

[[record]]
variant = "R22C"
recorded_value = 3.17

[[record]]
variant = "G15K"
recorded_value = 3.85

[[record]]
variant = "Q16R"
recorded_value = 3.95

[[record]]
variant = "L11R"
recorded_value = 3.38

[[record]]
variant = "S14Y"
recorded_value = 2.36

[[record]]
variant = "L11F"
recorded_value = 3.01

[[record]]
variant = "Y24M"
recorded_value = 3.48

[[record]]
variant = "S14E"
recorded_value = 4.31

[[record]]
variant = "S14N"
recorded_value = 3.61

[[record]]
variant = "K21V"
recorded_value = 3.16

[[record]]
variant = "D7L"
recorded_value = 2.73

[[record]]
variant = "Y24S"
recorded_value = 4.45

[[record]]
variant = "R18C"
recorded_value = 2.94

[[record]]
variant = "R18W"
recorded_value = 2.29

[[record]]
variant = "R20G"
recorded_value = 3.41

[[record]]
variant = "K21F"
recorded_value = 2.42

[[record]]
variant = "R20K"
recorded_value = 3.23

[[record]]
variant = "S8F"
recorded_value = 2.5

[[record]]
variant = "L11D"
recorded_value = 4.11

[[record]]
variant = "I1V"
recorded_value = 3.55

[[record]]
variant = "P6V"
recorded_value = 2.07

[[record]]
variant = "S8I"
recorded_value = 2.6

[[record]]
variant = "G15W"
recorded_value = 2.54

[[record]]
variant = "N2E"
recorded_value = 3.93

[[record]]
variant = "L10C"
recorded_value = 3.68

[[record]]
variant = "R18F"
recorded_value = 2.9

[[record]]
variant = "R19W"
recorded_value = 2.66

[[record]]
variant = "S8N"
recorded_value = 3.75

[[record]]
variant = "R19A"
recorded_value = 3.08

[[record]]
variant = "Y24E"
recorded_value = 3.13

[[record]]
variant = "R20V"
recorded_value = 2.94

[[record]]
variant = "L9A"
recorded_value = 3.61

[[record]]
variant = "R22T"
recorded_value = 3.45

[[record]]
variant = "R20L"
recorded_value = 2.75

[[record]]
variant = "L10H"
recorded_value = 4.01

[[record]]
variant = "T23G"
recorded_value = 3.87

[[record]]
variant = "N2I"
recorded_value = 2.36

[[record]]
variant = "R22W"
recorded_value = 2.27

[[record]]
variant = "L11V"
recorded_value = 3.04

[[record]]
variant = "S13N"
recorded_value = 3.74

[[record]]
variant = "L10R"
recorded_value = 3.76

[[record]]
variant = "T5V"
recorded_value = 3.71

[[record]]
variant = "T5H"
recorded_value = 3.33

[[record]]
variant = "T23K"
recorded_value = 4.29

[[record]]
variant = "T5M"
recorded_value = 2.89

[[record]]
variant = "R18T"
recorded_value = 3.48

[[record]]
variant = "I1D"
recorded_value = 4.03

[[record]]
variant = "N2A"
recorded_value = 3.09

[[record]]
variant = "K21N"
recorded_value = 3.59


Source of measurements: the supplement of paper PMC10567573
